All values here come from PubChem BioAssay (NCATS).

Tested on: TAB113
Assay: qHTS profiling for inhibitors of Plasmodium falciparum proliferation (AID 504749); further: nearly all actives have a fitted effect of over 60% in size
Settings: P. falciparum in erythrocytes, SYBR Green DNA, 72 h; series mostly up to 28.7 µM
Results filed as inconclusive are left out. Activity calls are given as the source filed them. The call rests on the fitted dose curve; in most records, active means well fitted inhibition curve with a large enough effect; inconclusive means small, poorly fitted or top-dose-only effect; inactive means flat fitted curve, though single readings scatter.
Labels: active, inactive

# COMPOUND, LABEL CLASS
rows = [
    ("c1ccc(-c2nc[nH]c2-c2ccccc2)cc1", "inactive"),
    ("CC(=O)Nc1ccc(OC(=O)c2ccccc2OC(C)=O)cc1", "inactive"),
    ("COc1ccc2c(c1)c1c3n2CCN(C)C3=NCC1", "inactive"),
    ("CC(C)(C)NC[C@H](O)COc1nsnc1N1CCOCC1", "active"),
    ("CCN(CC)CCOc1ccccc1C(=O)CCc1ccccc1", "inactive"),
    ("CC(=O)NO", "inactive"),
    ("COc1cc(NS(=O)(=O)c2ccc(N)cc2)ncn1", "inactive"),
    ("C/C=C/C=N/NC(=O)c1ccncc1", "inactive"),
    ("Cc1cccc(C)c1NC(=O)CN1CCCCCC1", "inactive"),
    ("CC(C)[N+](C)(C)CC(O)COc1cccc2ccccc12 (configuration not stated)", "inactive"),
    ("CCN(CC)CCNC(=O)COc1ccc(OC)cc1", "inactive"),
    ("CC(=O)Oc1ccc(C)cc1", "inactive"),
    ("N=C(N)N1CCc2ccccc2C1", "inactive"),
    ("CCC(CC)(CC(=O)Nc1cccc(/C=C/c2nc(C3CCC3)cs2)c1)C(=O)O", "inactive"),
    ("O=c1[nH]c(=O)n([C@H]2C[C@H](O)[C@@H](CO)O2)cc1F", "inactive"),
    ("CCC(C(=O)OCCOCCN(CC)CC)c1ccccc1 (configuration not stated)", "inactive"),
    ("CCN(CC)CCNC(=O)c1cc(Br)c(N)cc1OC", "inactive"),
    ("Nc1ccc(S(=O)(=O)NCc2ccccc2)cc1", "inactive"),
    ("CCOC(=O)c1ccc(N)cc1", "inactive"),
    ("O=C(Oc1cccc2cccnc12)c1ccccc1", "inactive"),
    ("CCCCN=C(N)N=C(N)N", "inactive"),
    ("Cc1cc2c(OCC(CNC(C)(C)C)OC(=O)c3ccccc3)cccc2[nH]1 (configuration not stated)", "inactive"),
    ("CCCCCCCCCCCCSCCOCCO", "inactive"),
    ("Cc1cccc(C)c1NC(=O)c1ccccc1C(=O)O", "inactive"),
    ("O=C(NCCc1c[nH]c2ccccc12)c1cccnc1", "inactive"),
    ("CC(C)CCCC(C)N (configuration not stated)", "inactive"),
    ("CCCCNc1ccc(C(=O)OCCOCCOCCOCCOCCOCCOCCOCCOCCOC)cc1", "inactive"),
    ("Cc1nc(-c2ccc(Cl)cc2)oc1COC(C)(C)C(=O)O", "inactive"),
    ("COc1ccccc1N1CCN(CCCCNC(=O)c2ccc(-c3ccc(C(C)=O)cc3)cc2)CC1", "inactive"),
    ("CCCCCCCC/C=C\\CCCCCCCCN", "inactive"),
    ("O=C(Nc1ccc([N+](=O)[O-])cc1)Nc1ccc([N+](=O)[O-])cc1", "inactive"),
    ("FC1(F)C(F)(F)C(F)(F)C2(F)C(F)(F)C(F)(F)C(F)(F)C(F)(F)C2(F)C1(F)F (configuration not stated)", "inactive"),
    ("O=C(c1ccc(F)cc1)C1CCN(CCn2c(=S)[nH]c3ccccc3c2=O)CC1", "active"),
    ("Nc1ccc(S(=O)(=O)Nc2cnc3ccccc3n2)cc1", "inactive"),
    ("CN1CCN(CCC(=O)N2c3ccccc3Sc3ccc(C(F)(F)F)cc32)CC1", "inactive"),
    ("CC(C)Cc1ccc(CC(=O)O)cc1", "inactive"),
    ("Nc1ccc(C(=O)NCC(=O)O)cc1", "inactive"),
    ("CCCCCCCCOc1ccc(C(=O)c2ccccc2)c(O)c1", "inactive"),
    ("Cc1ccc(O)c([C@H](CCN(C(C)C)C(C)C)c2ccccc2)c1", "active"),
    ("CCN(CC)CCNc1ccc(CO)c2sc3ccccc3c(=O)c12", "active"),
    ("COc1cc(C)nc(-n2nc(C)cc2OC)n1", "inactive"),
    ("CNCCc1ccccn1", "inactive"),
    ("O[C@@H](c1cc(C(F)(F)F)nc2c(C(F)(F)F)cccc12)[C@H]1CCCCN1", "active"),
    ("NCCNC(=O)c1ccc(Cl)cn1", "inactive"),
    ("CC(=O)NCCCCCC(=O)O", "inactive"),
    ("CN1CCN(c2cc3c(cc2F)c(=O)c(C(=O)O)cn3-c2ccc(F)cc2)CC1", "inactive"),
    ("OC1C(O)C(O)C(O)C(O)C1O (configuration not stated)", "inactive"),
    ("CCCc1ncc(C[n+]2ccccc2C)c(N)n1", "inactive"),
    ("Cc1ncc(CO)c(C=O)c1O", "inactive"),
    ("CC[C@H](c1ccc(O)cc1)[C@@H](CC)c1ccc(O)cc1", "inactive"),
    ("CN(CCCN1c2ccccc2CCc2ccccc21)CC(=O)c1ccc(Cl)cc1", "active"),
    ("COc1cc(C(=O)NCc2ccc(OCCN(C)C)cc2)cc(OC)c1OC", "inactive"),
]
